These data points were gathered from PubChem BioAssay (NCI).

test: NCI Yeast Anticancer Drug Screen. Data for the bub3 strain (AID 167); settings: S. cerevisiae bub3 mutant strain, at 50.0 µM, stronger effect = higher value
About 79,000 compounds went through this panel and 15% of them were active in at least one assay; those are over-represented in the sample as a whole.
Let's look at some compounds and their measured growth inhibition.
Your answer is read as %, so omit the unit and give the number.

Guide cases for growth inhibition, answers given:
>>> reported_measurement("O=[N+]([O-])c1ccccc1NCCO")
-14.2
>>> reported_measurement("c1csc(-c2nccc3c2[nH]c2ccccc23)c1")
91.3

// switching to the query compound
Need growth inhibition of O=[N+]([O-])c1ccc(/C=N\OCc2cscn2)cc1 , thanks.
-19.4
